# CONDITION_LABEL: Ebola virus entry assay, ratio channel readout
Activity calls are given as the source filed them. Calls come from the whole dose curve.
Pick one and only one: active, inactive

COMPOUND	ASSIGNED_CLASS
O=C1[C@H](CC[C@H](O)c2ccc(F)cc2)[C@@H](c2ccc(O)cc2)N1c1ccc(F)cc1	inactive
CN1CCC(=C2c3ccccc3C=Cc3ccccc32)CC1	inactive
CC(c1cc2ccccc2s1)N(O)C(N)=O (configuration not stated)	inactive
O=C(C1CCCCC1)N1CC(=O)N2CCc3ccccc3C2C1 (configuration not stated)	inactive
C[C@H]1O[C@H](O[C@H]2[C@H](O)[C@@H](O)[C@@H](O[C@H]3[C@H](O)[C@@H](O)[C@H](O)O[C@@H]3CO)O[C@@H]2CO)[C@H](O)[C@@H](O)[C@@H]1N[C@H]1C=C(CO)[C@@H](O)[C@H](O)[C@H]1O	inactive
Cc1c(O)cccc1C(=O)N[C@@H](CSc1ccccc1)[C@H](O)CN1C[C@H]2CCCC[C@H]2C[C@H]1C(=O)NC(C)(C)C	inactive
Cc1cc(C)cc(OCC2CNC(=O)O2)c1 (configuration not stated)	inactive
CC(C)C(=O)Nc1ccc([N+](=O)[O-])c(C(F)(F)F)c1	inactive

Proceed to the following item.
Hey, what did the test say about Cc1c(OCC(F)(F)F)ccnc1CS(=O)c1nc2ccccc2[nH]1 (configuration not stated) ?
inactive
